Values were extracted from patent US20170247326A1.

Target: SMYD2 (Homo sapiens, UniProt Q9NRG4)
Construct: Full length SMYD2 (NP_064582.2) was cloned; His6 (N, cleaved yes); FLAG (N); made in house; host or cells: Sf9 insect cells
Sequence (Q9NRG4 whole entry): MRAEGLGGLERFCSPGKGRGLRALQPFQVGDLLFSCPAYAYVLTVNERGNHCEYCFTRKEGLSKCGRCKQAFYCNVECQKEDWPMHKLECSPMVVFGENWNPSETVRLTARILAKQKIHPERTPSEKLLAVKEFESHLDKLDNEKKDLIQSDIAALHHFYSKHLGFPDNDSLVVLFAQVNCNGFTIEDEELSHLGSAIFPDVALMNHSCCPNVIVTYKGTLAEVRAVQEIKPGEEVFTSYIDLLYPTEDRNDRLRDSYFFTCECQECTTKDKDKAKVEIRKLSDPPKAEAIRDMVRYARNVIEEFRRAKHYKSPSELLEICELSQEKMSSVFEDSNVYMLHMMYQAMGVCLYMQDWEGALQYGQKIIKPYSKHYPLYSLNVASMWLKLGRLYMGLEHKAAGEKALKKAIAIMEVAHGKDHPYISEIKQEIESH
Test: SMYD2 biochemical assay (3H-SAM, biotinylated peptide substrate, Flashplate)
Conditions: Table 3; average of n = 1 to n = 50; read-out: SMYD2 Biochem IC50
ASSAY READOUT: IC50

>  <MOLECULE>
C[C@H]1CN(Cc2ccc(OCc3ccccc3)cc2)C[C@@H]1NC(=O)c1cc(C2CC2)cnn1 (racemic)

>  <ASSAY READOUT>
IC50

>  <DATA VALUE>
2.7 µM

$$$$

Request: Given the molecule CC(C)N1C[C@H](C)[C@H](NC(=O)c2ccc(C3CC3)[nH]c2=O)C1 (racemic) , what is its reported IC50?
Response: > 50 µM

Request: Continue with CC(C)N1C[C@@H](C)[C@H](NC(=O)c2cnnc(C3CC3)c2)C1 (racemic)
Response: > 50 µM
